experimentalDetails: self-splicing fitness, log relative to wild type (ln ratio); higher = more splicing; Tetrahymena group I intron in knt gene, E. coli kanamycin selection, DiMSum; sequences stand for … in CUCUCU…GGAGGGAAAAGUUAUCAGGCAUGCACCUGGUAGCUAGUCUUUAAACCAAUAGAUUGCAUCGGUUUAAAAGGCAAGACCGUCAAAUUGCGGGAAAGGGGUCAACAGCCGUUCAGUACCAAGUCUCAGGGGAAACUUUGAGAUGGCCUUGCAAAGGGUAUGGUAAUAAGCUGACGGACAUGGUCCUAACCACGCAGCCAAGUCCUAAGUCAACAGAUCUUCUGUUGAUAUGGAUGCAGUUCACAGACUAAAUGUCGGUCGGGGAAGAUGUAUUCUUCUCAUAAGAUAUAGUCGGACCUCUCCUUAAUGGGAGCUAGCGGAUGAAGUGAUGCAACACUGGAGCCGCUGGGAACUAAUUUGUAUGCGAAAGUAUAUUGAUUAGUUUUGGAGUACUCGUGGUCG;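 also: selection with 25 µg/mL kanamycin versus none on LB agar overnight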
conditionDetails: 37 °C
readoutLabel: self-splicing fitness (ln)
Please state the value as a number alone, without comment.

Some entries whose results are on file:
- residues: "CGCGAGCAAUAUUACGUCGC"
  self-splicing fitness (ln): -3.48
- residues: "CCCCAGCAAUAUUACGGUAU"
  self-splicing fitness (ln): -2.88
- residues: "GAGAAGCAAUAUUACGGGCA"
  self-splicing fitness (ln): -0.441
- residues: "ACGGAGCAAUAUUACGGUCG"
  self-splicing fitness (ln): -0.856
- residues: "UUAAAGCAAUAUUACGCAAU"
  self-splicing fitness (ln): -1.42

Entry AUUAAGCAAUAUUACGUUGA has what self-splicing fitness (ln)?
-1.95

Give its self-splicing fitness (ln) value. Item: UGCCAGCAAUAUUACGCGUC
-1.8

Give the measured self-splicing fitness (ln) of CGAGAGCAAUAUUACGGGGG .
-3.14

I'd like to know its self-splicing fitness (ln). The sequence in question is GACAAGCAAUAUUACGUGCA
0.0273

Using the record for GAUUAGCAAUAUUACGCUUC , report its self-splicing fitness (ln).
-1.88

Which self-splicing fitness (ln) value belongs to AGGCAGCAAUAUUACGUCAC ?
-1.25

Which value of self-splicing fitness (ln) has been reported for AUGUAGCAAUAUUACGGGCC in the records?
-1.86

Any idea what self-splicing fitness (ln) was measured for CACAAGCAAUAUUACGUAGG ?
-0.693

I'd like to know its self-splicing fitness (ln). The sequence in question is CAACAGCAAUAUUACGUAGC
-2.49

----------
experimentalDetails: self-splicing fitness, log relative to wild type (ln ratio); higher = more splicing; Tetrahymena group I intron in knt gene, E. coli kanamycin selection, DiMSum; sequences stand for … in CUCUCU…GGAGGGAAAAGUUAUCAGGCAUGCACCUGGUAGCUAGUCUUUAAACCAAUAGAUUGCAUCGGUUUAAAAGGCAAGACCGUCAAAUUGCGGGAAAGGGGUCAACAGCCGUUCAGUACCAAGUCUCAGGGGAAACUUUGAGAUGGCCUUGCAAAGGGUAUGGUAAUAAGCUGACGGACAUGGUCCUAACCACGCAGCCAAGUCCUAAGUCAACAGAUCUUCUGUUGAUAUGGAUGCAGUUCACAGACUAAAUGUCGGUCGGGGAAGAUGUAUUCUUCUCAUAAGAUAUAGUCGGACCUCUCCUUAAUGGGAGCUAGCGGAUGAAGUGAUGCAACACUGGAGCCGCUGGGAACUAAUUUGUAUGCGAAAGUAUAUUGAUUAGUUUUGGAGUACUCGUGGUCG
conditionDetails: 30 °C
Each record here notes measured self-splicing fitness (ln).
Format: numeric value only, no unit, no commentary.

Example sequences with recorded self-splicing fitness (ln):
- residues: "CGCAAGCAAUAUUACGAUAG"
  self-splicing fitness (ln): -0.276
- residues: "GGGCAGCAAUAUUACGUUAU"
  self-splicing fitness (ln): -1.68
- residues: "AGGUAGCAAUAUUACGUACU"
  self-splicing fitness (ln): -0.29
- residues: "AAAGAGCAAUAUUACGGUGG"
  self-splicing fitness (ln): -2.85
- residues: "AAAUAGCAAUAUUACGUUCC"
  self-splicing fitness (ln): -2.08

Now turn to the next sequence.
For ACUUAGCAAUAUUACGGGCA , what is its reported self-splicing fitness (ln)?
-1.04
